Reported Longevity @ 23° C. values are given for each entry in this list.
# assay-protocol: Release rate and longevity of encapsulated two-part construction (Example 3)
# Assay type: physicochemical
# condition: two-part device about 100 g; inner part 60 wt % pesticide, 40 wt % carrier; outer part HDPE 120 mil; 23° C.

compound	Longevity @ 23° C. / years
CCOP(=S)(OCC)Oc1cc(C)nc(C(C)C)n1 [Diazinon]	39
Oc1ccc(Cl)cc1Cc1cc(Cl)ccc1O [Dichlorophen]	56
CC1(C)C(C=C(Cl)Cl)C1C(=O)OCc1cccc(Oc2ccccc2)c1 (centres unmarked) [Permethrin]	68
Cc1c(F)c(F)c(COC(=O)[C@@H]2[C@H](/C=C(\Cl)C(F)(F)F)C2(C)C)c(F)c1F (racemic) [Tefluthrin]	35
c1ccc(-c2ccccc2)cc1 [Biphenyl]	31
